Reported values of inhibition for individual entries
TARGET: Sentrin-specific protease 8 (Homo sapiens) (UniProt Q96LD8)
Sequence (Q96LD8 whole entry, looked up): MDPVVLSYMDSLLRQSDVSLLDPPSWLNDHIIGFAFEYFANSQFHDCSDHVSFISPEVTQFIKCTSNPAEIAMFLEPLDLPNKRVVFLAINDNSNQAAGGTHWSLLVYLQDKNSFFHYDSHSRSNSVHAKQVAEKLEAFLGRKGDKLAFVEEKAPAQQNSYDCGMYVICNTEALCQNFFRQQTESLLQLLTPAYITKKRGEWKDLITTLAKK
METHOD NOTES: blockers of human SENP8 peptidase activity – biochemical, luminescence, primary screen (AID 2540)
TEST SETTINGS: purified SENP8, Z-RLRGG-aminoluciferin cleavage, at 10 µM, hits give high values
Hit rate of the full screen: of about 330,000 compounds, about 4,100 (1.2%) were called active. This is one part of a sample in which actives are shown more often than they occur.
Number only, in %; omit the unit.

Solved cases (5 shown):
{"columns": ["MOLECULE", "UNIT DESCRIPTOR", "inhibition"],
 "data": [
  ["Cc1nn(CC(=O)Nc2ccc(F)cc2)c(=O)c2ccccc12", "%", 1.21],
  ["CC(C)CN(C(=O)CSc1nncn1C)C1CCS(=O)(=O)C1 (configuration not stated)", "%", -3.63],
  ["O=C(Nc1cccnc1Cl)c1cc(-c2ccccc2O)on1", "%", -7.17],
  ["O=C(Nc1ccc2c(c1)OCCO2)c1ccoc1", "%", -5.62],
  ["S=c1[nH]nc(-c2cc(-c3ccccc3)n[nH]2)n1/N=C/c1c2ccccc2cc2ccccc12", "%", -9.93]
]}

Note inhibition for the molecule shown: S=c1[nH]nc(-c2cc(-c3ccsc3)n[nH]2)n1-c1ccccc1
2.29

Note inhibition for the molecule shown: O=C(COC(=O)c1ccc(F)cc1)Nc1ccc2c(c1)OCO2
-15.4

Note inhibition for the molecule shown: c1ccc(-c2cc(-c3ccccc3)[nH]n2)cc1
58.4

Note inhibition for the molecule shown: CCC(=O)Nc1ccc2nn(-c3ccc(F)cc3)nc2c1
63.6

Note inhibition for the molecule shown: Nc1ccc(N=Nc2ccccc2Cl)c(N)n1
72.7

Note inhibition for the molecule shown: Cc1ccc(NC(=O)c2cc(-c3ccccc3O)n[nH]2)cc1C
-13.8

Note inhibition for the molecule shown: CC1(C)Cc2ccccc2-c2nnc(-c3cccc(O)c3)n21
-5.27
